B1: Tyrosine-protein kinase BTK, residues 215 to 273; numbered along this chain, Q06187 (parent)
chain: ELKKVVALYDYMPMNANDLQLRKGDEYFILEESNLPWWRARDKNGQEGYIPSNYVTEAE

Variants of: B1
Test: abundance fitness (aPCA) (normalised: wild type 0, dead -1); higher = more abundant; growth selection in yeast, the domain comes from the species named
Settings: Homo sapiens
Outcome: satisfied for abundance fitness of at least -0.1; not satisfied for anything lower.

{"columns": ["mutation_name", "class"],
 "data": [
  ["G24Q", "not satisfied"],
  ["D25N", "satisfied"],
  ["P51G", "not satisfied"],
  ["K23A", "satisfied"],
  ["N53K", "satisfied"],
  ["G48I", "not satisfied"],
  ["E47N", "not satisfied"],
  ["G24E", "not satisfied"],
  ["K43N", "satisfied"],
  ["A58L", "not satisfied"],
  ["N34W", "satisfied"],
  ["V55R", "not satisfied"],
  ["G48T", "not satisfied"],
  ["D25H", "satisfied"],
  ["Q46I", "satisfied"],
  ["L19E", "not satisfied"],
  ["Y54I", "not satisfied"],
  ["L21P", "not satisfied"],
  ["I29T", "not satisfied"],
  ["R39H", "not satisfied"],
  ["T56D", "satisfied"],
  ["K23R", "satisfied"],
  ["R22K", "satisfied"],
  ["E26T", "satisfied"],
  ["E47H", "not satisfied"],
  ["G24H", "not satisfied"],
  ["E26W", "satisfied"],
  ["D42L", "not satisfied"],
  ["N17E", "satisfied"],
  ["D18E", "satisfied"],
  ["K43C", "satisfied"],
  ["W37L", "satisfied"],
  ["N53I", "not satisfied"],
  ["Q20P", "satisfied"],
  ["Q20W", "not satisfied"],
  ["V55W", "not satisfied"],
  ["N44W", "satisfied"],
  ["K43L", "satisfied"],
  ["Y49V", "satisfied"],
  ["E31S", "satisfied"],
  ["N34G", "satisfied"],
  ["K43Q", "satisfied"],
  ["E32N", "satisfied"],
  ["G48A", "not satisfied"],
  ["F28T", "satisfied"],
  ["G48H", "not satisfied"],
  ["R22S", "satisfied"],
  ["D25L", "satisfied"],
  ["Q20S", "satisfied"],
  ["I29F", "not satisfied"],
  ["L35D", "satisfied"],
  ["P51W", "not satisfied"],
  ["E26L", "satisfied"],
  ["W38L", "satisfied"],
  ["Y27F", "not satisfied"],
  ["L35H", "satisfied"],
  ["N44C", "satisfied"],
  ["F28G", "satisfied"],
  ["A58C", "satisfied"],
  ["D42F", "not satisfied"],
  ["A58K", "satisfied"],
  ["E26R", "satisfied"],
  ["N17P", "not satisfied"]
]}

Values compiled from the Human Domainome abundance scans (Beltran et al. 2025).
